Tested on: FaDu cell line
Test: Prodrug Activation in Hypoxic Stirred Tumour Cell Suspensions
Conditions: 10 μM, 4 hours, 5% O2
endpoint.label: Fraction of prodrug converted to active form, Oxic 5% O2

CC(c1cnc([N+](=O)[O-])n1C)N(c1cnc2cc(N3CCOCC3)nc(O[C@H]3CC[C@@H](Nc4ncc(CN5CCOCC5)cn4)CC3)c2c1)S(C)(=O)=O (stereo partly drawn)	D (D is 0 to 0.02)
CC(c1cnc([N+](=O)[O-])n1C)N(c1cnc2cc(N3CCOCC3)nc(O[C@H]3CC[C@@H](Nc4ncc(OCCN5CCOCC5)cn4)CC3)c2c1)S(C)(=O)=O (stereo partly drawn)	D (D is 0 to 0.02)

---

Tested on: HCT116 tumour spheroids
Assay: Spheroid + radiation colony forming cell survival assay (SF), HCT116
Type: cell-based
Settings: Homo sapiens, HCT-116; spheroids, 8 Gy, 5% O2, concentration that increases cell kill by 50% over radiation alone; Example 8; read-out: Cell line: HCT116 Colony forming endpoint Surviving Fraction EC50
endpoint.label: EC50

Check out these entries, answers already filled in.
O=C(O)c1cnc2cc(N3CCOCC3)nc(O[C@H]3CC[C@@H](n4ccnc4)CC3)c2c1	10 to 100 µM
CN(C)CCOc1cnc(N[C@H]2CC[C@@H](Oc3nc(N4CCOCC4)cc4ncccc34)CC2)nc1	0.01 to 0.5 µM
CS(=O)(=O)NC(=O)c1cnc2cc(N3CCOCC3)nc(O[C@H]3CC[C@@H](n4ccnc4)CC3)c2c1	10 to 100 µM

Reported EC50 ( CN(C)C(=O)COc1cnc(N[C@H]2CC[C@@H](Oc3nc(N4CCOCC4)cc4ncccc34)CC2)nc1 ) = 0.01 to 0.5 µM

---

System: FaDu cell line
Experiment: Prodrug Activation in Hypoxic Stirred Tumour Cell Suspensions
Details: 10 μM, 4 hours, 0.2% O2
endpoint.label: Fraction of prodrug converted to active form, Hypoxic 0.2% O2

CN1CCN(c2cnc(N[C@H]3CC[C@@H](Oc4nc(N5CCOCC5)cc5ncc(OCc6cnc([N+](=O)[O-])n6C)cc45)CC3)nc2)CC1 [LFA2065]	A (A is 0.15 to 1)
Cn1ncc(CN(c2cnc3cc(N4CCOCC4)nc(O[C@H]4CC[C@@H](Nc5ncccn5)CC4)c3c2)S(C)(=O)=O)c1[N+](=O)[O-] [LFA2057]	A (A is 0.15 to 1)
CC(c1cnc([N+](=O)[O-])n1C)N(c1cnc2cc(N3CCOCC3)nc(OC3CCC(c4cnccn4)CC3)c2c1)S(C)(=O)=O (stereo not drawn) [LFA2043]	B (B is 0.05 to 0.15)
Cn1c(CN(c2cnc3cc(N4CCOCC4)nc(O[C@H]4CC[C@@H](Nc5ccc(F)cn5)CC4)c3c2)S(C)(=O)=O)cnc1[N+](=O)[O-] [LFA2010]	B (B is 0.05 to 0.15)

---

Molecular target: DNA-PK (Homo sapiens)
Construct: purchased Invitrogen PR9107A
Assay: DNA-PK Assay for Biochemical Enzymatic Inhibition (ADP Glo Kinase assay)
Settings: DNA-PK enzyme, Table 1
pIC50: −log10 of the molar value.
Parameter pIC50: see the listing below.

Reference set (5 entries):
O=C(O)COc1cnc(N[C@H]2CC[C@@H](Oc3nc(N4CCOCC4)cc4ncc(C(=O)O)cc34)CC2)nc1	> 9.30
CN(C)C(=O)N[C@H]1CC[C@@H](Oc2nc(N3CCOCC3)cc3ncccc23)CC1	8.00 to 9.00
O=C(NS(=O)(=O)C1CC1)c1cnc2cc(N3CCOCC3)nc(O[C@H]3CC[C@@H](n4ccnc4)CC3)c2c1	8.00 to 9.00
CSc1cnc2cc(N3CCOCC3)nc(O[C@H]3CC[C@@H](Nc4ncccn4)CC3)c2c1 [Compound 200d]	8.00 to 9.00
CN(C)C(=N[C@H]1CC[C@@H](Oc2nc(N3CCOCC3)cc3ncccc23)CC1)N(C)C	6.82 to 8.00

Entry NCCOc1cnc(N[C@H]2CC[C@@H](Oc3nc(N4CCOCC4)cc4ncccc34)CC2)nc1 , DNA-PK (Homo sapiens) data, pIC50 value: > 9.30

Fill in: DNA-PK (Homo sapiens) pIC50 for CN(C)C(=O)Cn1c(=O)n(C2CCOCC2)c2nc(N[C@H]3CC[C@@H](Oc4nc(N5CCOCC5)cc5ncccc45)CC3)ncc21 = > 9.30
